Molecular target: Btk SH2 domain, wild-type (recombinant) (human, UniProt Q06187 271-383)
Sequence (Q06187 271-383): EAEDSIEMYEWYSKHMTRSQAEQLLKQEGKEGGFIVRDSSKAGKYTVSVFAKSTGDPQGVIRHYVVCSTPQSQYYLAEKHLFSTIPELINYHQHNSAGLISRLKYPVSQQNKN
Assay: FP
Square brackets hold non-standard residues; d marks the D form. Ends that are not written are not given here. pY = N[C@@H](Cc1ccc(OP(=O)(O)O)cc1)C(=O)O
observation.type: pKd
pKd is defined as minus the log10 of a concentration measured in mol/L.

The recorded pKd for entry ADND[pY]IIPLPD (also: FITC label, end not given here) [FITC-labeled pY-peptide (ADNDpYIIPLPD)] equals 5.15

Where do these numbers come from? They come from paper PMC7210950.
